# Test system: RXF 393 renal
# procedure details: NCI tumour cell line growth inhibition, 48 h; in the data active = GI50 below about 0.43 µM; inactive = the rest
*1 amine or outer side, *2 acyl side, *3 side chain or, on linkers, in order; H or OH if unused. Where a SMILES comes first, the peptide text is derived from it. Bridges are numbered along the chain shown (N, C = ends). [ ]: non-standard residue; d: D form. The star is where a group is joined. Phe(3-Me) = Cc1cccc(C[C@H](N)C(=O)O)c1; NH(4-Cl-2-F-phenyl) = Fc1cc(Cl)ccc1N*; Pro(4R-Me) = C[C@H]1CN[C@H](C(=O)O)C1; Hyp = O=C(O)[C@@H]1C[C@@H](O)CN1; aThr = C[C@H](O)[C@H](N)C(=O)O; Pip = O=C(O)[C@@H]1CCCCN1; CO = O=C([*:1])[*:2]
Respond with a class label; see active, inactive

Reference set (2 entries):
# molecule, subject of test, class name
data = [
    ("O=C(Nc1ccncc1)C(=O)c1cn(S(=O)(=O)c2ccccc2F)c2ccccc12", "RXF 393 renal", "inactive"),
    ("Cc1c(Cl)cccc1NC(=O)c1sc2nc3c(cc2c1N)CCCCCC3", "RXF 393 renal", "active"),
]

Q: Each molecule tested received a call. Report the one for Cc1ccc(C(=O)N/N=C/c2cccc(Oc3ccccc3)c2)cn1 .
Ans: inactive

Q: For COc1ccc(C(=O)c2cc(OC)c(OC)c(OC)c2)cc1O , which call appears in the assay record?
Ans: active

Q: Query: recorded result category for CC1(C)N=C(N)N=C(N)N1c1cccc(CCCCc2ccc(S(=O)(=O)F)cc2Cl)c1 in this test
Ans: inactive

Q: Which outcome was entered for the molecule Cc1cccc(C[C@H](NC(=O)Nc2ccc(Cl)cc2F)C(=O)N[C@@H]2C(=O)N3C[C@H](O)C[C@H]3C(=O)N3CCCC[C@H]3C(=O)N[C@@H](C)C(=O)N3C[C@H](C)C[C@H]3C(=O)O[C@H]2C)c1 ({NH(4-Cl-2-F-phenyl)-CO}-[Phe(3-Me)][aThr][Hyp][Pip]A[Pro(4R-Me)]; ester 2-C) in this test?
Ans: inactive

Q: Which outcome did this test record for the molecule CCc1nc2ccc(Cc3ccc(C(=O)NO)cc3)cc2c(=O)n1CCc1ccccc1 ?
Ans: inactive

Q: Outcome logged for CN1CCN(Cc2ccc(NC(=O)c3[nH]ncc3Nc3ncnc4c3CCC4)cc2)CC1 in this assay:
Ans: inactive

Q: Outcome logged for CN(C)CC#Cc1cccc(C(=O)c2cnn(-c3ccc(F)cc3)c2N)c1 in this assay:
Ans: inactive

Q: # outcome recorded in this test, key = COc1cc2cnc3c(c2cc1OC)Cc1cc2c(cc1-3)OCO2
Ans: active
